These data points were gathered from patent US20250074901A1.

Target: Kv7.2 (Homo sapiens)
Experiment: Activation of Kv7.2 (in vitro assay, concentration response curve)
Settings: activation of Kv7.2
pEC50: −log10 of the molar value.

compound: O=C(NCc1ccnc(OC(F)F)c1)NC12CCC(F)(CC1)CC2
pEC50: 6.80
//
compound: O=C(NCc1ccnc(OCF)c1)NC12CCC(F)(CC1)CC2
pEC50: 6.33
//
compound: O=C(NCc1ccnc(OC(F)F)c1)NC12CC(C(F)(F)F)(C1)C2
pEC50: 5.73
//
compound: O=C(NCc1ccnc(C(F)(F)F)c1)N[C@H]1C[C@@H]2CC[C@H]1C2 (racemic)
pEC50: 6.27
//
compound: O=C(NCc1ccnc(OC(F)F)c1)NC1CCCCC1(O)C(F)(F)F (centres unmarked)
pEC50: 6.27
//
compound: O=C(NCc1ccnc(OCC(F)(F)F)c1)N[C@H]1C[C@H](F)C1
pEC50: 6.72
//
compound: O=C(NCc1ccnc(OC(F)F)c1)NC1CCC2C1C2(F)F (racemic)
pEC50: 6.60
//
compound: O=C(NCc1ccnc(OCF)c1)N[C@@H]1[C@H]2CCC(F)(F)[C@H]21 (racemic)
pEC50: 6.05
//
compound: O=C(NCc1ccnc(OCC(F)F)c1)NC12CC(F)(C1)C2
pEC50: 6.51
//
compound: N#CCOc1cc(CNC(=O)N[C@H]2C[C@H](C(F)(F)F)C2)ccn1
pEC50: 6.60
//
compound: O=C(NCc1ccnc(OC(F)F)c1)NC(C1CCC1)C(F)(F)F (centres unmarked)
pEC50: 6.85
//
compound: O=C(NCc1ccnc(OCC(F)CF)c1)NC12CCC(F)(CC1)CC2 (centres unmarked)
pEC50: 6.47
//
compound: O=C(NCc1ccnc(OC(F)F)c1)Nc1ccc(F)c(F)c1
pEC50: 6.26
//
compound: O=C(NCc1ccnc(OC(F)F)c1)Nc1cccc(F)c1F
pEC50: 7.05
//
compound: CC(F)(F)COc1cc(CNC(=O)NC23CCC(F)(CC2)CC3)ccn1
pEC50: 6.72
//
compound: O=C(NCc1ccnc(OCC(F)(F)F)c1)NCC1CC(C(F)(F)F)C1 (centres unmarked)
pEC50: 6.64
//
compound: O=C(NCc1ccnc(OC(F)F)c1)Nc1cncc(Cl)n1
pEC50: 6.09
//
compound: O=C(Nc1cccc(Cl)c1F)NC(CO)c1ccnc(OCC(F)(F)F)c1 (centres unmarked)
pEC50: 7.10
//
compound: O=C(NCc1ccnc(OC(F)F)c1)NC12CCC(CC1)CC2
pEC50: 6.77
//
compound: O=C(NCc1ccnc(OC(F)F)c1)NCC1CCCC1
pEC50: 6.68
//
compound: O=C(NCc1ccnc(OC(F)F)c1)N[C@@H]1C[C@H]2CCC[C@H]2C1
pEC50: 7.52
//
compound: O=C(NCc1ccnc(OCC(F)(F)F)c1)NC1CCCC1
pEC50: 6.85
//
compound: O=C(NCc1ccnc(OC(F)F)c1F)N[C@H]1C[C@H](C(F)(F)F)C1
pEC50: 6.42
//
compound: C[C@]1(NC(=O)NCc2ccnc(OC(F)F)c2)C[C@@H](C(F)(F)F)C1
pEC50: 5.81
//
compound: O=C(NCc1ccnc(OC(F)F)c1)Nc1cccc(Cl)n1
pEC50: 6.68
//
compound: O=C(NCc1ccnc(OC(F)F)c1)NC[C@@]12CCC[C@@H]1CCO2 (racemic)
pEC50: 5.46
